From: the NIST ThermoML archive (doi:10.1021/acs.jced.5b00662)

Assay: refractive index (Na D-line) (dimensionless)
Settings: 293.15 K; 101.33 kPa; Liquid; Standard Abbe refractometry
measured endpoint: refractive index
Give bare numbers.

// below: answered compounds
Reported refractive index of COCCOCCOC [2,5,8-trioxanonane] : 1.40802

Reported refractive index of OCCOCCOCCO [triethylene glycol] : 1.4561

Reported refractive index of COCCOCCO [2-(2-methoxyethoxy)ethanol] : 1.42498

Reported refractive index of COCCOCCOCCOCCOC [2,5,8,11,14-pentaoxapentadecane] : 1.43196

Reported refractive index of COCCOCCOCCOC [2,5,8,11-tetraoxadodecane] : 1.42284

Reported refractive index of CCOCCO [2-ethoxyethan-1-ol] : 1.41024

Kindly give each listed record's refractive index.
1. CCOCCOCCO [3,6-dioxa-1-octanol]
2. CCOCCOCCOCC [diethylene glycol diethyl ether]

(A)
1.42711
1.41202

Kindly give each listed record's refractive index.
1. OCCOCCO [diethylene glycol]
2. OCCO [1,2-ethanediol]

(A)
[1.44702, 1.43167]

* * *

Settings: 313.15 K; 101.33 kPa; Liquid; Sing-around technique in a fixed-path interferometer
measured endpoint: speed of sound (m/s)
Numbers only, in m/s.

Reported speed of sound of CCOCCOCCO : 1321.7

Reported speed of sound of CCOCCOCCOCC : 1184.1

Reported speed of sound of OCCOCCO : 1542.8

Reported speed of sound of COCCOCCO : 1363.9

Reported speed of sound of COCCOCCOCCOCCOC : 1325.6

Next molecule, please.
Reported speed of sound of CCOCCO : 1250.2

* * *

Conditions: 358.15 K; 101.33 kPa; Liquid; Concentric cylinders viscometry
Please provide measured viscosity for the entries that follow.
Numbers only, in mPa·s.

// below: answered compounds
Reported viscosity of COCCOCCOCCOC : 0.801

Reported viscosity of CCOCCOCCOCC : 0.556

Reported viscosity of OCCO : 2.835

Reported viscosity of OCCOCCOCCO : 4.874

Reported viscosity of OCCOCCO : 3.944

Reported viscosity of CCOCCOCCO : 1.153

---
Reported viscosity of COCCOCCOC : 0.486

* * *

Please provide measured refractive index for the entries that follow.
Assay: refractive index (Na D-line) (dimensionless)
Details: 288.15 K; 101.33 kPa; Liquid; Standard Abbe refractometry
Answers are plain numbers.

// below: answered molecules
Reported refractive index of OCCO : 1.43312

Reported refractive index of OCCOCCO : 1.4486

Reported refractive index of CCOCCOCCO : 1.42916

Reported refractive index of COCCOCCO : 1.42723

Reported refractive index of COCCOCCOC : 1.4102

Kindly give each listed record's refractive index.
1. COCCOCCOCCOC
2. CCOCCOCCOCC
3. OCCOCCOCCO
4. CCOCCO
5. COCCOCCOCCOCCOC

(A)
[1.42498, 1.41428, 1.45774, 1.4125, 1.43414]

* * *

Assay: refractive index (Na D-line) (dimensionless)
Conditions: 333.15 K; 101.33 kPa; Liquid; Standard Abbe refractometry
measured endpoint: refractive index
Answers are plain numbers.

// below: answered molecules
Reported refractive index of COCCOCCOCCOC : 1.40579

Reported refractive index of COCCOCCOC : 1.3905

Reported refractive index of COCCOCCO : 1.4101

Next molecule, please.
Reported refractive index of OCCO : 1.41955

* * *

Test: refractive index (Na D-line) (dimensionless)
Details: 343.15 K; 101.33 kPa; Liquid; Standard Abbe refractometry
measured endpoint: refractive index
Give bare numbers.

// below: answered compounds
Reported refractive index of COCCOCCOC : 1.38623

Reported refractive index of COCCOCCOCCOCCOC : 1.41174

Reported refractive index of CCOCCOCCO : 1.40683

Reported refractive index of CCOCCO : 1.38849

Reported refractive index of OCCOCCOCCO : 1.43956

Reported refractive index of COCCOCCO : 1.40635

Reported refractive index of CCOCCOCCOCC : 1.38929

Reported refractive index of COCCOCCOCCOC : 1.40153

Reported refractive index of OCCOCCO : 1.43105

Next compound, please.
Reported refractive index of OCCO : 1.41655

* * *

Details: 353.15 K; 101.33 kPa; Liquid; Concentric cylinders viscometry
Please provide measured log10 viscosity for the entries that follow.
Parameter value (number): base-10 log of viscosity in mPa·s.

// below: answered compounds
Reported log10 viscosity of OCCO : 0.50

Reported log10 viscosity of COCCOCCOC : -0.30

Reported log10 viscosity of CCOCCO : -0.14

Reported log10 viscosity of CCOCCOCCOCC : -0.23

Reported log10 viscosity of COCCOCCOCCOCCOC : 0.10

Kindly give each listed record's log10 viscosity.
1. OCCOCCOCCO
2. OCCOCCO
3. CCOCCOCCO
4. COCCOCCOCCOC
5. COCCOCCO

(A)
1. 0.74
2. 0.65
3. 0.09
4. -0.09
5. 0.06

* * *

Please provide measured speed of sound for the entries that follow.
Settings: 293.15 K; 101.33 kPa; Liquid; Sing-around technique in a fixed-path interferometer
Numbers only, in m/s.

// below: answered compounds
Reported speed of sound of COCCOCCO : 1432.7

Reported speed of sound of COCCOCCOCCOCCOC : 1401

Reported speed of sound of CCOCCOCCOCC : 1263.1

Reported speed of sound of CCOCCOCCO : 1392.6

Reported speed of sound of OCCOCCO : 1591.4

Reported speed of sound of CCOCCO : 1323.9

Kindly give each listed record's speed of sound.
1. OCCOCCOCCO
2. OCCO
3. COCCOCCOCCOC

(A)
[1627.2, 1666.5, 1361.6]

Reported speed of sound of COCCOCCOC : 1299.9

* * *

Assay: refractive index (Na D-line) (dimensionless)
Details: 353.15 K; 101.33 kPa; Liquid; Standard Abbe refractometry
measured endpoint: refractive index
Numbers only.

// below: answered compounds
Reported refractive index of OCCO : 1.41351

Reported refractive index of COCCOCCOCCOCCOC : 1.40773

Reported refractive index of CCOCCO : 1.3838

Kindly give each listed record's refractive index.
1. CCOCCOCCOCC
2. OCCOCCO
3. COCCOCCO

(A)
1. 1.38474
2. 1.42786
3. 1.40241

* * *

Conditions: 308.15 K; 101.33 kPa; Liquid; Concentric cylinders viscometry
measured endpoint: log10(viscosity) (log10 of the value in mPa·s)
Parameter value (number): base-10 log of viscosity in mPa·s.

// below: answered compounds
Reported log10(viscosity) of OCCOCCO : 1.26

Reported log10(viscosity) of OCCO : 1.06

Reported log10(viscosity) of COCCOCCOCCOCCOC : 0.42

Kindly give each listed record's log10(viscosity).
1. CCOCCO
2. CCOCCOCCO
3. COCCOCCOCCOC
4. OCCOCCOCCO
5. COCCOCCOC

(A)
[0.18, 0.47, 0.21, 1.37, -0.06]

Kindly give each listed record's log10(viscosity).
1. CCOCCOCCOCC
2. COCCOCCO

(A)
0.03
0.43

* * *

Please provide measured log10 viscosity for the entries that follow.
Settings: 318.15 K; 101.33 kPa; Liquid; Concentric cylinders viscometry
Parameter value (number): base-10 log of viscosity in mPa·s.

Reported log10 viscosity of OCCO : 0.91

Kindly give each listed record's log10 viscosity.
1. COCCOCCO
2. CCOCCO
3. CCOCCOCCO

(A)
[0.33, 0.10, 0.37]

* * *

Settings: 348.15 K; 101.33 kPa; Liquid; Vibrating tube method
measured endpoint: mass density (kg/m3)
One number for each entry, in kg/m3.

// below: answered compounds
Reported mass density of OCCOCCOCCO : 1081.7

Reported mass density of COCCOCCOCCOC : 933.8

Kindly give each listed record's mass density.
1. OCCOCCO
2. CCOCCO
3. COCCOCCOC
4. COCCOCCO
5. CCOCCOCCO
6. OCCO

(A)
[1077.8, 880.7, 889.7, 971.8, 939.9, 1075.2]

Kindly give each listed record's mass density.
1. COCCOCCOCCOCCOC
2. CCOCCOCCOCC

(A)
1: 961.9; 2: 856.1

* * *

Details: 298.15 K; 101.33 kPa; Liquid; Sing-around technique in a fixed-path interferometer
measured endpoint: speed of sound (m/s)
Numbers only, in m/s.

Kindly give each listed record's speed of sound.
1. OCCO
2. COCCOCCOCCOC
3. OCCOCCOCCO
4. COCCOCCOCCOCCOC
5. CCOCCOCCO

(A)
1. 1654.7
2. 1342.1
3. 1611.5
4. 1382
5. 1374.6

Kindly give each listed record's speed of sound.
1. CCOCCOCCOCC
2. OCCOCCO
3. COCCOCCOC
4. CCOCCO
5. COCCOCCO

(A)
1: 1243.3; 2: 1579.2; 3: 1280; 4: 1305.7; 5: 1415.4
